target: Inadl_4, Q8NI35; experiment: holdup assay; design: key: below the threshold = too weak to quantify, mostly under pKd 3.1 to 4; conditions: plain residues with an end cap or a label only (N-terminal biotin on a linker: ttds)
Sequence (Q8NI35 547-651): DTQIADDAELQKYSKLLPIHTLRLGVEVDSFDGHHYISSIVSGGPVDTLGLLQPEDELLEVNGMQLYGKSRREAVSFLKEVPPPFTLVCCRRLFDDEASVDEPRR
RESULT_TYPE: pKd

Worked cases, pKd given:
BINDER: SSRTRRETQL [HPV16-E6, P03126]
pKd: below the threshold
//
BINDER: TVASEKESVM [SLC1A5, Q15758]
pKd: below the threshold
//
BINDER: SVWLRKETRV [CYSLTR2, Q9NS75]
pKd: below the threshold
//
BINDER: SRPQRTQTQV [HPV67-E6, A4U7F2]
pKd: below the threshold

stdin: Please give the measured pKd for this binder: QSARYRDTEL [TJP2, Q9UDY2]
stdout: below the threshold

stdin: What would you report for STLTIFETAL [ABCC4, O15439] ?
stdout: below the threshold

stdin: Also, VLRLQSETSV [VANGL1, Q8TAA9] please.
stdout: below the threshold

stdin: For GQDSREETQL [KCNT2, Q6UVM3] then?
stdout: below the threshold

stdin: Also ERKLSSESQV [LRP4, O75096] , if possible.
stdout: below the threshold

stdin: Lookup IDNDTESTAL [ARHGAP17, Q68EM7]
stdout: below the threshold

stdin: Quick one: RSLEEEESQL [GRASP, Q7Z6J2]
stdout: 3.83

stdin: # repeat for PKTPPTDTSV [KIR3DL3, Q8N743]
stdout: below the threshold

stdin: Entry IYVPEAQTRL [DLGAP4, Q9Y2H0] please
stdout: below the threshold
